Recorded AUC(0-inf), one value per entry.
test: Pharmacokinetics of VSP034 and VSP035 after oral administration of a liposomal formulation; type: in vivo, female Sprague-Dawley rats; settings: female, Sprague-Dawley, rat, in vivo, po, 100 mg/kg, AUC0-inf, Mean
Kindly answer with a numeric value in ng·h/mL, unit omitted.

- structure.as.smiles: "CN1CCC(CN2C(=O)c3ccccc3[C@H](C(=O)Nc3cccc(N4CCN(C)CC4)c3)[C@H]2c2ccc(C(F)(F)F)cc2)CC1"
  measured.metric: "AUC(0-inf)"
  readout.units: "ng·h/mL"
  value.observed: 2230

Consider now this further compound.
// field: AUC(0-inf); key: CN1CCC(CN2C(=O)c3ccccc3[C@@H](C(=O)Nc3cccc(N4CCN(C)CC4)c3)[C@@H]2c2ccc(C(F)(F)F)cc2)CC1 ; value = 529
